Taken from paper PMC2756588.

Molecular target: T1, Pex13, P80667
T1 sequence (P80667 295-386, looked up): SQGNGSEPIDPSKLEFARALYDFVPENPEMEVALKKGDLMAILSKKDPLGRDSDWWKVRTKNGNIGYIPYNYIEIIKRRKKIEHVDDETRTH
Test: SPOT array
Settings: median of control spots 1341
Overview of recorded SPOT intensity for various binders
Respond using a number only.

Examples from the recorded data:
binder | parameter | recorded-result
SHRLWLYAAPKRPKT | SPOT intensity | 8
ISNFVPPNLPMRRFK | SPOT intensity | 671
RKRAPTPPAPSRSEK | SPOT intensity | 6
KWVRRPKLMTPLTFS | SPOT intensity | 6
GRSRLFPHSPLGRSS | SPOT intensity | 4

Which SPOT intensity value is on record for MFLISPPASPPPEFD ?
12

What about this binder? NFFRKKLGIPRKLKR
14

What about this binder? PKMLPIPSKPTLFDL
52

What about this binder? APKHAPPPVPNETDN
0
